- Tested on: NCI-H3122
- MEASUREMENT NOTES: relative viability (nuclei count vs DMSO), 5 days (fraction); higher = more cells survive
- EXPERIMENTAL SETUP: first compound 0.8 µM
MEASURED PROPERTY: relative viability
Give bare numbers.

// known answers, use as guide
INSERT INTO assay_data (compound, measured_target, meas_value) VALUES
  ('Cc1cnc(-c2cnc(NCCNc3ccc(C#N)cn3)nc2-c2ccc(Cl)cc2Cl)[nH]1 + CC(C)C[C@H](NC(=O)[C@H](Cc1ccccc1)NC(=O)c1cnccn1)B(O)O [Bortezomib] (partner 0.002 µM)', 'NCI-H3122', 0.997),
  ('Cc1cnc(-c2cnc(NCCNc3ccc(C#N)cn3)nc2-c2ccc(Cl)cc2Cl)[nH]1 + CC(=O)Nc1cccc(-n2c(=O)n(C3CC3)c(=O)c3c(Nc4ccc(I)cc4F)n(C)c(=O)c(C)c32)c1 [Trametinib] (partner 0.02 µM)', 'NCI-H3122', 0.246),
  ('O=c1[nH]c2ccccc2n1C1CCN(CCCC(c2ccc(F)cc2)c2ccc(F)cc2)CC1 [Pimozide] + CC(=O)Nc1cccc(-n2c(=O)n(C3CC3)c(=O)c3c(Nc4ccc(I)cc4F)n(C)c(=O)c(C)c32)c1 [Trametinib] (partner 0.02 µM)', 'NCI-H3122', 0.216);

Now look at this one.
IN: Given the compound O=c1[nH]c2ccccc2n1C1CCN(CCCC(c2ccc(F)cc2)c2ccc(F)cc2)CC1 [Pimozide] + Cc1nc(Nc2ncc(C(=O)Nc3c(C)cccc3Cl)s2)cc(N2CCN(CCO)CC2)n1 [Dasatinib] (partner 0.075 µM) , write its reported relative viability.
OUT: 0.385

----------
- Tested on: HOP-62
- MEASUREMENT NOTES: relative viability (nuclei count vs DMSO), 5 days (fraction); higher = more cells survive
- EXPERIMENTAL SETUP: first compound 0.1581 µM
Record form. Attribute: relative viability. Fill in for each entry.
Answers are plain numbers.

INSERT INTO measurements (molecule, meas_value) VALUES
  ('Nc1ccn([C@@H]2O[C@H](CO)[C@@H](O)[C@@H]2O)c(=O)n1 [Cytarabine] + CC(C)C[C@H](NC(=O)[C@H](Cc1ccccc1)NC(=O)c1cnccn1)B(O)O [Bortezomib] (partner 0.002 µM)', 0.174);

Now look at this one.
IN: Given the molecule COc1cc2nccc(Oc3ccc(NC(=O)Nc4cc(C)on4)c(Cl)c3)c2cc1OC [Tivozanib] + CS(=O)(=O)CCNCc1ccc(-c2ccc3ncnc(Nc4ccc(OCc5cccc(F)c5)c(Cl)c4)c3c2)o1 [Lapatinib] (partner 2 µM) , write its reported relative viability.
OUT: 0.787

----------
Record form. Attribute: relative viability. Fill in for each entry.
- Test system: LCLC-103H
- MEASUREMENT NOTES: relative viability (nuclei count vs DMSO), 5 days (fraction); higher = more cells survive
- EXPERIMENTAL SETUP: first compound 0.1581 µM
Answers are plain numbers.

INSERT INTO measurements (molecule, measured_property, meas_value) VALUES
  ('Nc1ccn([C@@H]2O[C@H](CO)[C@@H](O)[C@@H]2O)c(=O)n1 [Cytarabine] + O=C(c1cc(Cc2n[nH]c(=O)c3ccccc23)ccc1F)N1CCN(C(=O)C2CC2)CC1 [Olaparib] (partner 8 µM)', 'relative viability', 0.803),
  ('Nc1ccn([C@@H]2O[C@H](CO)[C@@H](O)[C@@H]2O)c(=O)n1 [Cytarabine] + CS(=O)(=O)N1CCN(Cc2cc3nc(-c4cccc5[nH]ncc45)nc(N4CCOCC4)c3s2)CC1 [Pictilisib] (partner 1 µM)', 'relative viability', 0.513),
  ('COc1cc2nccc(Oc3ccc(NC(=O)Nc4cc(C)on4)c(Cl)c3)c2cc1OC [Tivozanib] + NC(=O)Nc1cc(-c2cccc(F)c2)sc1C(=O)N[C@H]1CCCNC1 [AZD7762] (partner 0.2 µM)', 'relative viability', 0.689),
  ('COc1cc2nccc(Oc3ccc(NC(=O)Nc4cc(C)on4)c(Cl)c3)c2cc1OC [Tivozanib] + Nc1ncn([C@H]2C[C@H](O)[C@@H](CO)O2)c(=O)n1 [Decitabine] (partner 2 µM)', 'relative viability', 0.685),
  ('Nc1ccn([C@@H]2O[C@H](CO)[C@@H](O)[C@@H]2O)c(=O)n1 [Cytarabine] + CC(=O)Nc1cccc(-n2c(=O)n(C3CC3)c(=O)c3c(Nc4ccc(I)cc4F)n(C)c(=O)c(C)c32)c1 [Trametinib] (partner 0.02 µM)', 'relative viability', 0.682);

Now look at this one.
IN: Recall the reported relative viability of COc1cc2nccc(Oc3ccc(NC(=O)Nc4cc(C)on4)c(Cl)c3)c2cc1OC [Tivozanib] + C[C@]1(O)C[C@@H](c2nc(-c3ccc4ccc(-c5ccccc5)nc4c3)c3c(N)nccn32)C1 [Linsitinib] (partner 1 µM) when tested on LCLC-103H.
OUT: 1.21

----------
Record form. Attribute: relative viability. Fill in for each entry.
- Test system: NCI-H1437
- MEASUREMENT NOTES: relative viability (nuclei count vs DMSO), 5 days (fraction); higher = more cells survive
- EXPERIMENTAL SETUP: first compound 1.265 µM

// known answers, use as guide
INSERT INTO results (compound, meas_value) VALUES
  ('Cc1sc2c(c1C)C(c1ccc(Cl)cc1)=N[C@@H](CC(=O)OC(C)(C)C)c1nnc(C)n1-2 [JQ1] + CS(=O)(=O)CCNCc1ccc(-c2ccc3ncnc(Nc4ccc(OCc5cccc(F)c5)c(Cl)c4)c3c2)o1 [Lapatinib] (partner 2 µM)', 0.194),
  ('Cc1sc2c(c1C)C(c1ccc(Cl)cc1)=N[C@@H](CC(=O)OC(C)(C)C)c1nnc(C)n1-2 [JQ1] + CC1(C)CCC(c2ccc(Cl)cc2)=C(CN2CCN(c3ccc(C(=O)NS(=O)(=O)c4ccc(N[C@H](CCN5CCOCC5)CSc5ccccc5)c(S(=O)(=O)C(F)(F)F)c4)cc3)CC2)C1 [Navitoclax] (partner 0.5 µM)', 0.325),
  ('Cc1sc2c(c1C)C(c1ccc(Cl)cc1)=N[C@@H](CC(=O)OC(C)(C)C)c1nnc(C)n1-2 [JQ1] + C[C@]1(O)C[C@@H](c2nc(-c3ccc4ccc(-c5ccccc5)nc4c3)c3c(N)nccn32)C1 [Linsitinib] (partner 1 µM)', 0.228);

IN: Given the compound Cc1sc2c(c1C)C(c1ccc(Cl)cc1)=N[C@@H](CC(=O)OC(C)(C)C)c1nnc(C)n1-2 [JQ1] + CC(=O)Nc1cccc(-n2c(=O)n(C3CC3)c(=O)c3c(Nc4ccc(I)cc4F)n(C)c(=O)c(C)c32)c1 [Trametinib] (partner 0.02 µM) , write its reported relative viability.
OUT: 0.35

----------
- System: SW 1573
- MEASUREMENT NOTES: relative viability (nuclei count vs DMSO), 5 days (fraction); higher = more cells survive
- EXPERIMENTAL SETUP: first compound 0.000632 µM
MEASURED PROPERTY: relative viability
Numbers only.

// known answers, use as guide
INSERT INTO measurements (compound, measured_target, measured_property, meas_value) VALUES
  ('CC(=O)O[C@@]12CO[C@@H]1C[C@H](O)[C@@]1(C)C(=O)[C@H](O)C3=C(C)[C@@H](OC(=O)[C@H](O)[C@@H](NC(=O)OC(C)(C)C)c4ccccc4)C[C@@](O)([C@@H](OC(=O)c4ccccc4)[C@H]21)C3(C)C [Docetaxel] + O=C(c1cc(Cc2n[nH]c(=O)c3ccccc23)ccc1F)N1CCN(C(=O)C2CC2)CC1 [Olaparib] (partner 8 µM)', 'SW 1573', 'relative viability', 0.223),
  ('CC(=O)O[C@@]12CO[C@@H]1C[C@H](O)[C@@]1(C)C(=O)[C@H](O)C3=C(C)[C@@H](OC(=O)[C@H](O)[C@@H](NC(=O)OC(C)(C)C)c4ccccc4)C[C@@](O)([C@@H](OC(=O)c4ccccc4)[C@H]21)C3(C)C [Docetaxel] + Nc1ncn([C@H]2C[C@H](O)[C@@H](CO)O2)c(=O)n1 [Decitabine] (partner 2 µM)', 'SW 1573', 'relative viability', 0.296),
  ('CC(=O)O[C@@]12CO[C@@H]1C[C@H](O)[C@@]1(C)C(=O)[C@H](O)C3=C(C)[C@@H](OC(=O)[C@H](O)[C@@H](NC(=O)OC(C)(C)C)c4ccccc4)C[C@@](O)([C@@H](OC(=O)c4ccccc4)[C@H]21)C3(C)C [Docetaxel] + CS(=O)(=O)N1CCN(Cc2cc3nc(-c4cccc5[nH]ncc45)nc(N4CCOCC4)c3s2)CC1 [Pictilisib] (partner 1 µM)', 'SW 1573', 'relative viability', 0.314),
  ('CC(=O)O[C@@]12CO[C@@H]1C[C@H](O)[C@@]1(C)C(=O)[C@H](O)C3=C(C)[C@@H](OC(=O)[C@H](O)[C@@H](NC(=O)OC(C)(C)C)c4ccccc4)C[C@@](O)([C@@H](OC(=O)c4ccccc4)[C@H]21)C3(C)C [Docetaxel] + Nc1nc2[nH]cc(CCc3ccc(C(=O)N[C@@H](CCC(=O)O)C(=O)O)cc3)c2c(=O)[nH]1 [Pemetrexed] (partner 0.2 µM)', 'SW 1573', 'relative viability', 0.478),
  ('CC(=O)O[C@@]12CO[C@@H]1C[C@H](O)[C@@]1(C)C(=O)[C@H](O)C3=C(C)[C@@H](OC(=O)[C@H](O)[C@@H](NC(=O)OC(C)(C)C)c4ccccc4)C[C@@](O)([C@@H](OC(=O)c4ccccc4)[C@H]21)C3(C)C [Docetaxel] + CC(=O)c1c(C)c2cnc(Nc3ccc(N4CCNCC4)cn3)nc2n(C2CCCC2)c1=O [Palbociclib] (partner 0.5 µM)', 'SW 1573', 'relative viability', 0.23),
  ('CC(=O)O[C@@]12CO[C@@H]1C[C@H](O)[C@@]1(C)C(=O)[C@H](O)C3=C(C)[C@@H](OC(=O)[C@H](O)[C@@H](NC(=O)OC(C)(C)C)c4ccccc4)C[C@@](O)([C@@H](OC(=O)c4ccccc4)[C@H]21)C3(C)C [Docetaxel] + CC(C)C[C@H](NC(=O)[C@H](Cc1ccccc1)NC(=O)c1cnccn1)B(O)O [Bortezomib] (partner 0.002 µM)', 'SW 1573', 'relative viability', 0.364);

Now look at this one.
IN: Recall the reported relative viability of CC(=O)O[C@@]12CO[C@@H]1C[C@H](O)[C@@]1(C)C(=O)[C@H](O)C3=C(C)[C@@H](OC(=O)[C@H](O)[C@@H](NC(=O)OC(C)(C)C)c4ccccc4)C[C@@](O)([C@@H](OC(=O)c4ccccc4)[C@H]21)C3(C)C [Docetaxel] + CCNC(=O)c1noc(-c2cc(C(C)C)c(O)cc2O)c1-c1ccc(CN2CCOCC2)cc1 [Luminespib] (partner 0.01 µM) when tested on SW 1573.
OUT: 0.211
